Target: Gag-Pol polyprotein (Human immunodeficiency virus type 1 group M subtype B (isolate HXB2))
Test: HIV-1 RT RNase H inhibitors, primary screen, biochemical, fluorescence (AID 565)
Settings: RT-RNase H RNA/DNA duplex cleavage, at 10 µM
Screen size: about 65,000 compounds; about 1,200 (1.8%) were called active. Rule as the data show it: active = inhibition above about 50%; inactive = the rest. Only a selection was taken, and actives are over-represented in it overall.
Outcome codes: 1 for active, -1 for inactive

compound | discrete label
N#CC(=C1SC=CS1)c1nc(-c2ccccc2)cs1 | 1
CSCCC1NC2(C(=O)Nc3ccc(Cl)cc32)[C@@H]2C(=O)N(C3CCCC3)C(=O)[C@H]12 (stereo not given in full) | -1
Cc1cccc(NC(=O)CSc2nnc(CCCCCNC(=O)OC(C)(C)C)o2)c1C | -1
Cc1ccc(S(=O)(=O)Cn2nnnc2CN2CCN(Cc3ccc4c(c3)OCO4)CC2)cc1 | -1
CCOc1cc(S(=O)(=O)NCc2ccc3c(c2)OCO3)ccc1F | -1
O=S(=O)(c1ccc2ccccc2c1)N1CCN(S(=O)(=O)N2CCOCC2)CC1 | -1
Cc1ccc(Cn2nnnc2CN2CCC(n3nnc4ccccc43)CC2)cc1 | 1
CCCc1[nH]nc2c1C(C1CC=CCC1)C(C#N)=C(N)O2 (stereo not given) | -1
CCCc1[nH]nc2c1C(c1ccc(OC)c(Cn3nc(C)c(Br)c3C)c1)C(C#N)=C(N)O2 (stereo not given) | -1
COc1ccccc1NC(=O)CN1CCN(S(=O)(=O)c2ccc(Br)cc2)CC1 | -1
CCc1nc(Nc2ccc3nccnc3c2)c2oc3ccccc3c2n1 | -1
CCOC(=O)c1sc(NC(=O)c2cc(S(=O)(=O)N3CCOCC3)ccc2C)nc1C | -1
CCOC(=O)c1sc(/N=C/Nc2nc(C)c(C(=O)OCC)s2)nc1C | 1
Cc1nc(NC(=O)CCC(=O)O)sc1C(=O)N(C)C | -1
O=C(c1ccc2c(c1)OCO2)N1CCNc2ccccc2C1 | -1
